Items are presented alongside their recorded melting point.

Recorded results for 5 molecules are shown here.
O=C(O)CCc1cc(F)c2ncc(C(=O)NCc3ccc(Cl)cc3)c(O)c2c1	284 to 286 °C
COc1cc(-c2ccc(C3C(CCC(O)c4ccc(F)cc4)C(=O)N3c3ccc(F)cc3)cc2)cc(OC)c1OC (centres undefined)	103 °C
O=C(O)c1nc2c(=O)[nH]c3cc(C(F)(F)F)ccc3n2c1CBr	> 250 °C
CCc1nc2cc(/C=C/C(=O)NO)ccc2c(=O)n1CCc1ccc(OC)cc1	215 to 217 °C
C[C@@H](S[C@H]1CO[C@H](c2ccc(C(=O)NCc3cccc4ccccc34)cc2)OC1)[C@](O)(Cn1cncn1)c1ccc(F)cc1F	97 °C

INPUT: Indicate the recorded melting point value for this molecule: CCOC(=O)C(Cc1ccc(OC)c(OC)c1)NC(=O)c1ccccc1 (centres undefined)
OUTPUT: 82 to 83 °C

INPUT: Complete the entry with melting point for CC(C)c1cc(O)ccc1OCc1ccccc1
OUTPUT: 39 to 40 °C

INPUT: Note down melting point recorded for CCOC(=O)c1c(C)noc1C(=O)O
OUTPUT: 54 to 58 °C

INPUT: Item CCOc1ccc2c(c1)CC2C#N (centres undefined) : provide melting point
OUTPUT: 50 to 52 °C

INPUT: Find the measured melting point of Cc1ccc(Cn2ccc(CN3CCC(c4ccccc4)(c4ccccc4)CC3)n2)cc1C and report it.
OUTPUT: 139 to 140 °C
